Reference for the values: patent US8044048B2

# procedure.text: Toxicity in mice, maximum tolerated dose
# Format: in vivo
# conditions.used: mouse, in vivo
experimental.endpoint: MTD

Notebook: `CSc1ccc(/C=C2/C(C)=C(CC(=O)NCCN(C)C)c3cc(F)ccc32)cc1` , MTD read as ~300 mg/kg
